tested on: Escherichia coli; assay: Antimicrobial activity against Escherichia coli ATCC 35218 by MTT assay; assay type: functional
measured_property: MIC (µg/mL)

CC(=O)N1N=C(c2ccc(Cl)c(Cl)c2)CC1c1ccccc1 (stereo unspecified) :: 12.5
CC(=O)N1N=C(c2ccc(Br)cc2)CC1c1ccc(Br)cc1 (stereo unspecified) :: 25

I = COc1ccc(C2=NN(C(C)=O)C(c3ccc(Cl)cc3)C2)cc1 (stereo unspecified)
II = CC(=O)N1N=C(c2ccccc2)CC1c1ccc(F)cc1 (stereo unspecified)
III = CC(=O)N1N=C(c2ccc(Cl)c(Cl)c2)CC1c1ccc(Br)cc1 (stereo unspecified)
Qu. Let's sort these by MIC, smallest first. Go ahead? Answer by naming the labels in the order asked.
Ans. I, III, II

---

test system: Staphylococcus aureus; experiment: Antimicrobial activity against Staphylococcus aureus ATCC 6538 by MTT assay; assay type: functional
measured_property: MIC (µg/mL)

NC[C@H]1O[C@H](O[C@H]2[C@H](O)[C@@H](O[C@H]3O[C@H](CO)[C@@H](O)[C@H](N)[C@H]3O)[C@H](N)C[C@@H]2N)[C@H](N)[C@@H](O)[C@@H]1O :: 3.12
CC(=O)N1N=C(c2ccc(Cl)c(Cl)c2)CC1c1ccc(Cl)cc1 (centres undefined) :: 25
CC(=O)N1N=C(c2ccc(Cl)cc2)CC1c1ccc(C)cc1 (centres undefined) :: 12.5
CC(=O)N1N=C(c2ccc(Cl)c(Cl)c2)CC1c1ccccc1Cl (centres undefined) :: 25
CC(=O)N1N=C(c2ccc(Br)cc2)CC1c1ccc(Cl)cc1 (centres undefined) :: 3.12

P = COc1cc(OC)cc(C2CC(c3ccccc3)=NN2C(C)=O)c1 (centres undefined)
Q = CC(=O)N1N=C(c2ccc(Br)cc2)CC1c1ccc(C)cc1 (centres undefined)
R = CC(=O)N1N=C(c2ccc(Cl)cc2)CC1c1ccc(F)cc1 (centres undefined)
S = CC(=O)N1N=C(c2ccc(C)c(C)c2)CC1c1ccc(F)cc1 (centres undefined)
T = COc1ccc(C2CC(c3ccc(C)c(C)c3)=NN2C(C)=O)cc1 (centres undefined)
Qu. Let's sort these by MIC, smallest first. Go ahead? Answer by naming the labels in the order asked.
Ans. S, T, Q, R, P
(S: 1.56 µg/mL, T: 3.12 µg/mL, Q: 6.25 µg/mL, R: 12.5 µg/mL, P: 25 µg/mL)

---

tested on: Escherichia coli; assay: Antimicrobial activity against Escherichia coli ATCC 35218 by MTT assay; assay type: functional
measured_property: MIC (µg/mL)

A = COc1ccc(C2=NN(C(C)=O)C(c3ccc(F)cc3)C2)cc1 (stereo unspecified)
B = COc1ccc(C2CC(c3ccc(Br)cc3)=NN2C(C)=O)cc1 (stereo unspecified)
C = COc1ccc(C2CC(c3ccccc3F)=NN2C(C)=O)cc1 (stereo unspecified)
Qu. # descending MIC order for the listed molecules Answer by naming the labels in the order asked.
Ans. B, C, A

---

test system: Enterococcus faecalis; assay: Antimicrobial activity against Streptococcus faecalis ATCC 9790 by MTT assay; type: functional
measured_property: MIC (µg/mL)

Reference set (3 entries):
CC(=O)N1N=C(c2ccc(Cl)c(Cl)c2)CC1c1ccc(C)cc1 (stereo unspecified) :: 12.5
CC(=O)N1N=C(c2ccc(Cl)cc2)CC1c1ccc(F)cc1 (stereo unspecified) :: 1.56
COc1ccc(C2CC(c3ccc(Cl)c(Cl)c3)=NN2C(C)=O)cc1 (stereo unspecified) :: 6.25

A = CC(=O)N1N=C(c2ccc(C)c(C)c2)CC1c1ccc(Br)cc1 (stereo unspecified)
B = CC(=O)N1N=C(c2ccccc2F)CC1c1ccc(C)cc1 (stereo unspecified)
Qu. Min MIC? A | B Identify your pick by its label.
Ans. B
